Where do the numbers come from? From patent US3976771A.

Tested on: mice
assay_details: Acute oral toxicity in mice
Format: in vivo
study_conditions: deaths during 7 days
Measured LD 0.1 (the dose which kills 0.1 % of the animals), listed per entry.
Record the value in mg/kg bodyweight, omitting the unit from your answer.

Completed entries (count: 3):
> print(dat)
                                   molecule  target.of.assay  measured.number
1  CCN(CC)CC(=O)N[C@@H](C)C(=O)NC(C)(C)c1ccccc1 [GEA 981]             mice              610
2  CCN(CC)[C@@H](C)C(=O)N[C@@H](C)C(=O)NC(C)(C)c1ccccc1 [GEA 982]             mice              210
3  CCN(CC)CC(=O)NCC(=O)Nc1c(C)cccc1C [GEA 968, N,N-diethylglycylglycine-2,6-xylidide]             mice              250

Now let's try a different one.
What LD 0.1 (the dose which kills 0.1 % of the animals) value was documented for this molecule, CCN(CC)CC(=O)Nc1c(C)cccc1C [Lidocaine, 2-diethylamino-2', 6'-acetoxylidide, reference compound] ? 150

###

Each entry below lists one item and its recorded Toxicity LD50 p.o. value.
Tested on: mice
assay_details: Acute oral toxicity in mice
Assay type: in vivo
study_conditions: deaths during 7 days
Method: For determination of acute toxicity groups of 10 mice were treated orally with varying doses of compound observing the incidence of death, during a 7 days period. LD50 and LD 0.1 were calculated by means of a logarithmic-probit graph paper.
# value in mg/kg bodyweight; strip the unit string

> print(dat)
                                   molecule   reported.property  measured.number
1  CCN(CC)CC(=O)NCC(=O)Nc1c(C)cccc1C [GEA 968, N,N-diethylglycylglycine-2,6-xylidide]  Toxicity LD50 p.o.              535

Form: Entry = CCN(CC)CC(=O)N[C@@H](C)C(=O)NC(C)(C)c1ccccc1 | System = mice | Toxicity LD50 p.o. = ____ 880

Notebook: pull reported Toxicity LD50 p.o. for mice, entry CCN(CC)[C@@H](C)C(=O)N[C@@H](C)C(=O)NC(C)(C)c1ccccc1 660
